Value source: the supplement of paper PMC10567573

Recorded protein stability index for the following variants
B1: ZNF24 (parent)
chain: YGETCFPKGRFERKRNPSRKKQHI

Variants of: B1
assay-details: protein stability index of a GFP-peptide fusion (GPS, HEK-293T) (PSI 1-6); higher = more stable;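 further: lentivirally expressed fusions sorted by FACS into six bins by GFP to DsRed ratio, PSI derived from sequencing read proportions per bin multiplied by bin number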
test-settings: c terminus: a fixed tail appended
A bare number is all that is needed in reply.

H23Q    2.95

## Input Fill in: protein stability index of `R10I` is ___
## Output 2.92

## Input Could you do the same for `K14G` , please?
## Output 2.92

## Input Could you do the same for `R19E` , please?
## Output 2.56

## Input Could you do the same for `I24A` , please?
## Output 3.43

## Input Could you do the same for `G2L` , please?
## Output 2.58

## Input Could you do the same for `K8A` , please?
## Output 2.17

## Input Could you do the same for `R19W` , please?
## Output 2.42

## Input Could you do the same for `P7Y` , please?
## Output 1.76

## Input Could you do the same for `G9A` , please?
## Output 2.11
